Data provenance is patent US4760088A.

Tested on: Micrococcus liteus
Experiment: Biocidal effect on bacteria, gram-positive (agar plate)
Assay type: cell-based
Settings: 48 h, no colonies observed, brain-heart infusion agar, 35° C., two days, max. tested 500 ppm, read-out: Minimum Inhibitory Concentration (MIC)
parameter: MIC (mg/L)
Answers are plain numbers, in mg/L.

1. CCCCCCCCCCSC1c2c(O)cc(O)cc2OC(c2ccc(O)c(O)c2)C1O (centres unmarked) :: 5
2. CCCCCCCCCCCCCCCCSC1c2c(O)cc(O)cc2OC(c2ccc(O)c(O)c2)C1O (centres unmarked) :: 75
3. CCCCCCSC1c2c(O)cc(O)cc2OC(c2ccc(O)c(O)c2)C1O (centres unmarked) :: 50
4. CCCCCCCCCCCCSC1c2c(O)cc(O)cc2OC(c2ccc(O)c(O)c2)C1O (centres unmarked) :: 50

Now turn to the next compound.
Q: I would be grateful if you could share the reported MIC for CCCCCCCCSC1c2c(O)cc(O)cc2OC(c2ccc(O)c(O)c2)C1O (centres unmarked) .
A: 40
